measured target: GDP-loaded KRAS G12D (Homo sapiens, UniProt P01116, G12D)
Sequence (P01116 1-188 isoform P01116-2 G12D): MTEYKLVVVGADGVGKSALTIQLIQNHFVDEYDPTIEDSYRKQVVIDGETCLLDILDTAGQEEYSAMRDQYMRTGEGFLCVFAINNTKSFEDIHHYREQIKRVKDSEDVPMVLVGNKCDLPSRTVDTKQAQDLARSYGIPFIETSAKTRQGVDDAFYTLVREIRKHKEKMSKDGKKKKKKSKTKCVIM
protocol text: KRAS G12D (GDP) biochemical assay, TR-FRET probe displacement
Assay type: binding
test parameters: 0.5 nM enzyme, 30 min pre-incubation, 2 h incubation, TR-FRET ratio; read-out: G12D IC50
pIC50: −log10 of the molar value.
Measured pIC50 accompanies every entry in the list below.

compound	pIC50
C#Cc1c(F)ccc2cc(O)cc(-c3c(F)c4c5c(nc(OC[C@@]67CCCN6C[C@H](F)C7)nc5c3F)N3C[C@H]5CC[C@H](N5)[C@H]3CC4)c12	10.15
C#Cc1c(F)ccc2cc(O)cc(-c3nc4c5c(nc(OC[C@@]67CCCN6C[C@H](F)C7)nc5c3F)N3C[C@H]5CC[C@@H]([C@H]3CC[C@H]4C)N5Cc3oc(=O)oc3C(C)(C)C)c12	7.14
C#Cc1c(F)ccc2cc(O)cc(-c3c(F)c4c5c(nc(OC[C@@]67CCCN6C[C@H](F)C7)nc5c3F)N3C[C@H]5CC[C@H](N5)[C@H]3CCC4)c12 (atropisomer, axis not shown; (aR))	10.15
C#Cc1c(F)ccc2cc(O)cc(-c3nc4c5c(nc(OC[C@@]67CCCN6C[C@H](F)C7)nc5c3F)N3C[C@H]5CC[C@@H]([C@H]3CC[C@H]4C)N5Cc3oc(=O)oc3CCCCCC)c12	7.40
Oc1cc(-c2nc3c4c(nc(OC[C@@]56CCCN5C[C@H](F)C6)nc4c2F)N2C[C@H]4CC[C@H](N4)[C@H]2CCC3)c2c(OC(F)(F)F)c(F)ccc2c1	10.22

---

measured target: GDP-loaded KRAS G12D (Homo sapiens, UniProt P01116, G12D)
protocol text: KRAS G12D (GDP) biochemical assay, TR-FRET probe displacement
Type: binding
pIC50: −log10 of the molar value.

compound	pIC50
C#Cc1c(F)ccc2cc(OC(=O)N(C)C)cc(-c3nc4c5c(nc(OC[C@@]67CCCN6C[C@H](F)C7)nc5c3F)N3C[C@H]5CC[C@@H]([C@@H]3[C@@H](C)C4)N5Cc3oc(=O)oc3C)c12 [Example 51]	< 7.00

---

protocol text: Rat oral pharmacokinetics
Design: species or system Male Sprague Dawley rats
test parameters: male, Sprague Dawley, in vivo, 7.5 mg/kg
Measured Rat Parent AUC accompanies every entry in the list below.
assay readout: Rat Parent AUC (µM·h)

molecule	assay readout	uom	data value
C#Cc1c(F)ccc2cc(O)cc(-c3nc4c5c(nc(OC[C@@]67CCCN6[C@H](COC(C(F)(F)F)(C(F)(F)F)C(F)(F)F)CC7)nc5c3F)N3C[C@H]5CC[C@@H]([C@H]3CCC4)N5Cc3oc(=O)oc3C)c12	Rat Parent AUC	µM·h	0.28
C#Cc1c(F)ccc2cc(N)nc(-c3c(F)c4c5c(nc(OC[C@@]67CCCN6C[C@H](F)C7)nc5c3F)N3C[C@H]5CC[C@@H]([C@H]3CCC4)N5Cc3oc(=O)oc3C)c12 (atropisomer, axis not shown; (aR))	Rat Parent AUC	µM·h	0.3
CCc1c(F)ccc2cc(O)cc(-c3c(F)c4c5c(nc(OC[C@@]67CCCN6C[C@H](F)C7)nc5c3F)N3C[C@H]5CC[C@@H]([C@H]3CCC4)N5Cc3oc(=O)oc3C)c12 (atropisomer, axis not shown; (aR))	Rat Parent AUC	µM·h	0.43

---

protocol text: Mouse oral cassette pharmacokinetics
Assay type: in vivo, male CD-1 mice
test parameters: male, CD-1, mouse, in vivo, po, 30 mg/kg
Measured Mouse Parent AUC (nM * h) accompanies every entry in the list below.
assay readout: Mouse Parent AUC (nM * h)

compound	data value
C#Cc1c(F)ccc2cccc(-c3nc4c5c(nc(OC[C@@]67CCCN6C[C@H](F)C7)nc5c3F)N3C[C@H]5CC[C@H](N5)[C@H]3CCC4)c12 [Comp. Ex. 76, reference compound]	1,400 nM * h
C#Cc1c(F)ccc2cc(O)cc(-c3nc4c5c(nc(OC[C@@]67CCCN6[C@H](COC(C(F)(F)F)(C(F)(F)F)C(F)(F)F)CC7)nc5c3F)N3C[C@H]5CC[C@@H]([C@H]3CCC4)N5Cc3oc(=O)oc3C)c12 [Example 38]	2,100 nM * h
C#Cc1c(F)ccc2cc(N)cc(-c3nc4c5c(nc(OC[C@@]67CCCN6C[C@H](F)C7)nc5c3F)N3C[C@H]5CC[C@@H]([C@H]3CCC4)N5Cc3oc(=O)oc3CC)c12 [Example 34]	1,300 nM * h
C#Cc1c(F)ccc2cc(N)cc(-c3nc4c5c(nc(OC[C@@]67CCCN6C[C@H](F)C7)nc5c3F)N3C[C@H]5CC[C@@H]([C@H]3CCC4)N5Cc3oc(=O)oc3C)c12 [Example 33]	1,500 nM * h

---

Test system: GP2D (KRAS G12D) cells
protocol text: 2D cell viability assay (CellTiter-Glo)
Type: cell-based
test parameters: GP2d, 96 h, read-out: G12D 2D EC50 (nM)

molecule	measured target	uom	EC50
C#Cc1c(F)ccc2cc(OC(=O)N(C)C)cc(-c3nc4c5c(nc(OC[C@@]67CCCN6C[C@H](F)C7)nc5c3F)N3C[C@H]5CC[C@@H]([C@@H]3[C@@H](C)C4)N5Cc3oc(=O)oc3C)c12 [Example 51]	GP2D (KRAS G12D) cells	nM	34

---

protocol text: Mouse oral cassette pharmacokinetics
Format: in vivo, male CD-1 mice
test parameters: male, CD-1, mouse, in vivo, po, 30 mg/kg

smiles code	Mouse Parent AUC [nM·h]
C#Cc1c(F)ccc2cc(OC(=O)C(C)C)cc(-c3nc4c5c(nc(OC[C@@]67CCCN6C[C@H](F)C7)nc5c3F)N3C[C@H]5CC[C@@H]([C@H]3CCC4)N5Cc3oc(=O)oc3C)c12	660
C#Cc1c(F)ccc2cc(O)cc(-c3nc4c5c(nc(OC[C@@]67CCCN6C[C@H](F)C7)nc5c3F)N3C[C@H]5CC[C@@H]([C@H]3CC[C@H]4C)N5Cc3oc(=O)oc3CCCCCC)c12	950
C#Cc1c(F)ccc2cc(N)cc(-c3nc4c5c(nc(OC[C@@]67CCCN6C[C@H](F)C7)nc5c3F)N3C[C@H]5CC[C@H](N5)[C@H]3CCC4)c12	500
C#Cc1c(F)ccc2cc(O)cc(-c3nc4c5c(nc(OC[C@@]67CCCN6C[C@H](F)C7)nc5c3F)N3C[C@H]5CC[C@H](N5)[C@H]3CC[C@H]4C)c12	140
C#Cc1c(F)ccc2cc(O)cc(-c3nc4c5c(nc(OC[C@@]67CCCN6C[C@H](F)C7)nc5c3F)N3C[C@H]5CC[C@@H]([C@H]3CCC4)N5Cc3oc(=O)oc3CCCCCC)c12	940

---

protocol text: Rat oral pharmacokinetics
Design: species or system Male Sprague Dawley rats
test parameters: male, Sprague Dawley, in vivo, 7.5 mg/kg

smiles code	Rat Parent % F, %
C#Cc1c(F)ccc2cc(N)cc(-c3nc4c5c(nc(OC[C@@]67CCCN6C[C@H](F)C7)nc5c3F)N3C[C@H]5CC[C@@H]([C@H]3CCC4)N5Cc3oc(=O)oc3CCCCCC)c12	1.9
C#Cc1c(F)ccc2cc(O)cc(-c3nc4c5c(nc(OC[C@@]67CCCN6C[C@H](F)C7)nc5c3F)N3C[C@H]5CC[C@@H]([C@@H]3[C@H]3CCC[C@@H]43)N5Cc3oc(=O)oc3C)c12	0.3
C#Cc1c(F)ccc2cc(O)cc(-c3nc4c5c(nc(OC[C@@]67CCCN6[C@H](COC(C(F)(F)F)(C(F)(F)F)C(F)(F)F)CC7)nc5c3F)N3C[C@H]5CC[C@@H]([C@H]3CCC4)N5Cc3oc(=O)oc3C)c12	3

---

protocol text: Mouse oral cassette pharmacokinetics
Type: in vivo, male CD-1 mice
test parameters: male, CD-1, mouse, in vivo, po, 30 mg/kg

compound	uom	Mouse Parent AUC
C#Cc1c(F)ccc2cc(O)cc(-c3nc4c5c(nc(OC[C@@]67CCCN6C[C@H](F)C7)nc5c3F)N3C[C@H]5CC[C@@H]([C@@H]3[C@@H](C)[C@H]4C)N5Cc3oc(=O)oc3C)c12 [Example 29]	µM·h	0.75
C#Cc1c(F)ccc2cc(O)cc(-c3nc4c5c(nc(OC[C@@]67CCCN6C[C@H](F)C7)nc5c3F)N3C[C@H]5CC[C@@H]([C@H]3CC[C@H]4C)N5Cc3oc(=O)oc3C3CCCCC3)c12 [Example 17]	µM·h	0.161
C#Cc1c(F)ccc2cc(O)cc(-c3nc4c5c(nc(OC[C@@]67CCCN6C[C@H](F)C7)nc5c3F)N3C[C@H]5CC[C@H](N5)[C@@H]3[C@@H](C)[C@H]4C)c12 [Comp. Ex. 87, reference compound]	µM·h	0.9
C#Cc1c(F)ccc2cc(O)cc(-c3nc4c5c(nc(OC[C@@]67CCCN6C[C@H](F)C7)nc5c3F)N3C[C@H]5CC[C@@H]([C@H]3CCC4)N5Cc3oc(=O)oc3C)c12 [Example 8]	µM·h	1.1
C#Cc1c(F)ccc2cc(O)cc(-c3nc4c5c(nc(OC[C@@]67CCCN6C[C@H](F)C7)nc5c3F)N3C[C@H]5CC[C@@H]([C@H]3CCC4)N5Cc3oc(=O)oc3C(C)(C)C)c12 [Example 9]	µM·h	0.16
